- MEASUREMENT PROTOCOL: qHTS of pediatric cancer cell lines to identify multiple opportunities for drug repurposing: Primary screen for LAN-5 cells (AID 1347100); further: potency means the concentration at half of the fitted maximal effect
- CONDITION CONTEXT: LAN-5 neuroblastoma viability, CellTiter-Glo luminescence, 48 h; series mostly up to 46 µM
Records with an inconclusive call do not appear. The source made the active and inactive calls. The call rests on the fitted dose curve; in most records, active means well fitted cell-killing curve with a large enough effect; inconclusive means small, poorly fitted or top-dose-only effect; inactive means no such curve, though single readings can be large or run the other way.
ENDPOINT NAME: Potency

Example molecules with recorded Potency:
Read the entry CC(=O)NC(CS)C(=O)O (centres undefined) and write its reported Potency.
inactive

Tell us which Potency value is on record for CC(C)(C)[N+]([O-])=Cc1ccc(S(=O)(=O)O)cc1S(=O)(=O)O
inactive

Look up and state reported Potency for O=C(C[C@@H]1CC=CCCC(=O)O[C@H](c2ccccc2)CNC1=O)NCc1ccc(Cl)cc1
inactive

State its Potency: CC(=O)OCC(=O)[C@@]1(O)CC[C@H]2[C@@H]3CCC4=CC(=O)CC[C@]4(C)[C@@H]3C(=O)C[C@@]21C
inactive

Provide only the value of recorded Potency for Nc1nc(N)c2nc(-c3cccc(O)c3)c(-c3cccc(O)c3)nc2n1
11800 nM (active)

Below are some molecules; for each one, tell me its Potency.
1. Cc1cnc(Nc2ccc(N3CCN(C)CC3)cc2)nc1Nc1cccc(S(=O)(=O)NC(C)(C)C)c1
2. CCCCCCCCCCCCCCCC(=O)OC[C@@H](NC(=O)C(Cl)Cl)[C@H](O)c1ccc([N+](=O)[O-])cc1
3. O=C(C=CC#Cc1cccc(NS(=O)(=O)c2ccccc2)c1)NO

1. 743 nM (active)
2. inactive
3. 1180 nM (active)

----------
- MEASUREMENT PROTOCOL: qHTS profiling for inhibitors of Plasmodium falciparum (HB3) proliferation (AID 743324);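 further: 100% = DMSO vehicle wells and 0% = artemisinin-treated control wells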
- CONDITION CONTEXT: Plasmodium falciparum HB3 blood-stage proliferation; at 28.7 µM (top of the series)
Starred links: 1 amine or outer side, 2 acyl side, 3 side chain; linkers in the order of their positions; H or OH if unused. Positions of bridges follow the written chain, without caps; N, C: chain ends. Non-standard residues stand in square brackets, D forms with d. Residues, ends and D or L forms follow the SMILES beside them. Chains are numbered I, II in the order given. Actinocin(9to1) = Cc1c2oc3c(C)ccc(C(=O)[*:1])c3nc-2c(C(=O)[*:2])c(N)c1=O; NMeV = CN[CH](C(=O)O)C(C)C; Sar = CNCC(=O)O
Would you mind telling me the reported remaining proliferation (% of control), lower = more inhibition of each entry?
One number for each entry, in %.

Go through the list and state remaining proliferation (% of control), lower = more inhibition for each entry.
1. COc1cc(C)c(Sc2cnc(NC(=O)c3ccc(CNC(C)C(C)(C)C)cc3)s2)cc1C(=O)N1CCN(C(C)=O)CC1 (stereo unspecified)
2. COC(=O)C1C2CC3c4[nH]c5cc(OC)ccc5c4CCN3CC2CC(OC(=O)c2cc(OC)c(OC)c(OC)c2)C1OC (stereo unspecified)
3. N#Cc1ccc(COC[C@H]2O[C@@H](n3c(NCc4ccc(Cl)c(Cl)c4)nc4c(N)ncnc43)[C@@H](O)[C@@H]2O)cc1
4. O=C(C[C@@H]1CC=CCCC(=O)O[C@H](c2ccccc2)CNC1=O)NCc1ccc(Cl)cc1
5. Cc1c2oc3c(C)ccc(C(=O)NC4C(=O)NC(C(C)C)C(=O)N5CCCC5C(=O)N(C)CC(=O)N(C)C(C(C)C)C(=O)OC4C)c3nc-2c(C(=O)NC2C(=O)NC(C(C)C)C(=O)N3CCCC3C(=O)N(C)CC(=O)N(C)C(C(C)C)C(=O)OC2C)c(N)c1=O (stereo unspecified) (I: TVP[Sar][NMeV] / II: TVP[Sar][NMeV]; ester I:1-I:C, II:1-II:C; linker I:N-II:N via Actinocin(9to1); configuration not given here)
6. O=C(O)CCCCC(CCSCc1ccccc1)SCc1ccccc1 (stereo unspecified)
7. COc1cc(C=CC(=O)CC(=O)C=Cc2ccc(O)c(OC)c2)ccc1O

1: 4.6; 2: 2.79; 3: 21.1; 4: 71.1; 5: -1.93; 6: 70.4; 7: 0.164
